src = ChEMBL document CHEMBL1130904

# Study System: UniProt P41594
# Test Details: In vitro antagonist activity at recombinant Metabotropic glutamate receptor 5 expressed in RGT cells.
# Format: functional, cell-based
# Condition Summary: rgt
Measure: IC50

Given the entry N[C@]1(C(=O)O)C[C@H](C(=O)O)N(Cc2ccccc2)C1 (stereo in doubt) , report its measured IC50.
> 300 µM

// below: IC50 requested for another compound
Given the entry N[C@]1(C(=O)O)C[C@H](C(=O)O)N(Cc2ccccc2-c2ccccc2)C1 (stereo in doubt; 7o) , report its measured IC50.
> 300 µM

* * *

# Study System: Metabotropic glutamate receptor 5 (Homo sapiens, UniProt P41594)
# Sequence (P41594 whole entry): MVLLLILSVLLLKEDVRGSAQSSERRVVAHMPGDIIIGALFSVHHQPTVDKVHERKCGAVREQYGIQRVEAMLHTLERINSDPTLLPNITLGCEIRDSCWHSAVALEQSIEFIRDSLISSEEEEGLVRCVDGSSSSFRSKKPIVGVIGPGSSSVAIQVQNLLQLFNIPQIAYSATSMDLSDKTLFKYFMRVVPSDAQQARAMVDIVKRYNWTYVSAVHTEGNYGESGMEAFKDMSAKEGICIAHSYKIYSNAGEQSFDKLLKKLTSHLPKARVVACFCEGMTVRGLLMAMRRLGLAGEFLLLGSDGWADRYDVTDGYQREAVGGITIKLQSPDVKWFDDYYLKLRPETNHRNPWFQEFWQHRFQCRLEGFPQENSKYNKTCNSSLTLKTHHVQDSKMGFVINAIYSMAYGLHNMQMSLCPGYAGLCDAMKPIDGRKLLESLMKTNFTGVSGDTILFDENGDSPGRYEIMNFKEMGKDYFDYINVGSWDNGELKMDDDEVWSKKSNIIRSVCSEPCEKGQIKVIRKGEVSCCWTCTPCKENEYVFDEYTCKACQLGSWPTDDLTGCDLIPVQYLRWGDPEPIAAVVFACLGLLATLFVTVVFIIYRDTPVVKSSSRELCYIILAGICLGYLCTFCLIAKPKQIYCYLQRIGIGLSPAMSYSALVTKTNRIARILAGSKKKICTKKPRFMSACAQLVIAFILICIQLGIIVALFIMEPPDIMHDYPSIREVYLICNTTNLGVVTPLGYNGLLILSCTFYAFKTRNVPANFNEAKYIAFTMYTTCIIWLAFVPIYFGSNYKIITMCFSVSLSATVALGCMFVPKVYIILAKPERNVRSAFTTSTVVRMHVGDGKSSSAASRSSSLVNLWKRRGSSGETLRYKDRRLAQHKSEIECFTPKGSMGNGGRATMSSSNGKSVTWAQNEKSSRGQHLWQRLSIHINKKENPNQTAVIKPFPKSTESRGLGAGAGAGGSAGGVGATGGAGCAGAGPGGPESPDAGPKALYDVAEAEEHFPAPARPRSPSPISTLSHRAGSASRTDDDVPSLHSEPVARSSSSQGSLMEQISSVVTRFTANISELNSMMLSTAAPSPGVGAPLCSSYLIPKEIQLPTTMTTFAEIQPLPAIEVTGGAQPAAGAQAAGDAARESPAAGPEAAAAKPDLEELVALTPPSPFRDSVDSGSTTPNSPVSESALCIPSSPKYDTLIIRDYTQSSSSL
# Test Details: In vitro antagonist activity at recombinant Metabotropic glutamate receptor 5 expressed in RGT cells.
# Assay type: functional, cell-based
Measure: IC50

Give Metabotropic glutamate receptor 5 (Homo sapiens, UniProt P41594) IC50 for N[C@]1(C(=O)O)C[C@H](C(=O)O)N(Cc2ccc(Cl)cc2Cl)C1
> 300 µM

Continuing:
Give Metabotropic glutamate receptor 5 (Homo sapiens, UniProt P41594) IC50 for N[C@]1(C(=O)O)C[C@H](C(=O)O)N(Cc2ccccc2-c2ccccc2)C1 (stereo in doubt)
> 300 µM

Ok, now N[C@]1(C(=O)O)C[C@H](C(=O)O)N(CCc2ccccc2)C1
> 300 µM

Ok, now CCN1C[C@@](N)(C(=O)O)C[C@@H]1C(=O)O
> 300 µM

Ok, now N[C@]1(C(=O)O)C[C@H](C(=O)O)N(Cc2cccc3ccccc23)C1
> 300 µM

* * *

# Study System: Metabotropic glutamate receptor 2 (Homo sapiens)
# Sequence (Q14416 whole entry): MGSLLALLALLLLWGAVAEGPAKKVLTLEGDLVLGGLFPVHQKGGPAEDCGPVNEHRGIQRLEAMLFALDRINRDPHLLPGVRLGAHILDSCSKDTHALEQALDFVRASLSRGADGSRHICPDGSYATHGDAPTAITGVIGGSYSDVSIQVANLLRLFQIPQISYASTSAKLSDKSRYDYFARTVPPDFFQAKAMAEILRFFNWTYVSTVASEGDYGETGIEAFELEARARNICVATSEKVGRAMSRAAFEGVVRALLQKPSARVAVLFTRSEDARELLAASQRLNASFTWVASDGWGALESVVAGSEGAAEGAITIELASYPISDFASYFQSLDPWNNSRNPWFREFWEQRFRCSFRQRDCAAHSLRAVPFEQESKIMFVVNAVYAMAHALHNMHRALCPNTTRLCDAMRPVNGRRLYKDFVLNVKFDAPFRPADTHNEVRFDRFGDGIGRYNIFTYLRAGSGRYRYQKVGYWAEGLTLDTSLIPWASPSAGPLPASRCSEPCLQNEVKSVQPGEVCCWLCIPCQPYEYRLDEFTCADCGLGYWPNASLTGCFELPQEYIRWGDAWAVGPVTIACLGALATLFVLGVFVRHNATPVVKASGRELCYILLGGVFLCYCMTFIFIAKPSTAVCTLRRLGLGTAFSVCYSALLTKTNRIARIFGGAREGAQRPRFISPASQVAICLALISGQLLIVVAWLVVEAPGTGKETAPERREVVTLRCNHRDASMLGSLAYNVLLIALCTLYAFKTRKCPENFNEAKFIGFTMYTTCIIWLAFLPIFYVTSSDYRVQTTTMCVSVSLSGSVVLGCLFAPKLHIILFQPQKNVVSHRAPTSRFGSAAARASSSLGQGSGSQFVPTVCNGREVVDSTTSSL
# Test Details: In vitro antagonist activity at recombinant human Metabotropic glutamate receptor 2 expressed in RGT cells.
Measure: pIC50
Give only the number. pIC50 is defined as minus log10 of concentration in molar units.

See these solved cases before continuing.
Given the entry N[C@]1(C(=O)O)C[C@H](C(=O)O)N(Cc2ccc3ccccc3c2)C1 , report its measured pIC50.
4.30

Ok, now N[C@]1(C(=O)O)C[C@H](C(=O)O)N(CC(c2ccccc2)c2ccccc2)C1
4.43

Ok, now N[C@]1(C(=O)O)C[C@H](C(=O)O)N(Cc2ccccc2)C1 (stereo in doubt; 7a)
3.92

Ok, now N[C@]1(C(=O)O)C[C@H](C(=O)O)N(Cc2ccccc2-c2ccccc2)C1 (stereo in doubt; 7o)
4.44

Ok, now N[C@]1(C(=O)O)C[C@H](C(=O)O)N(CCc2ccccc2)C1
4.21

Continuing:
Given the entry N[C@]1(C(=O)O)C[C@H](C(=O)O)N(Cc2cccc3ccccc23)C1 , report its measured pIC50.
4.70

Ok, now N[C@]1(C(=O)O)C[C@H](C(=O)O)N(CC2CCCCC2)C1
4.34

Ok, now N[C@]1(C(=O)O)C[C@H](C(=O)O)N(Cc2ccccc2Cl)C1
4.12

Ok, now N[C@]1(C(=O)O)C[C@H](C(=O)O)N(Cc2c(Cl)cccc2Cl)C1
4.38

* * *

# Study System: Metabotropic glutamate receptor 3 (Homo sapiens)
# Sequence (Q14832 whole entry): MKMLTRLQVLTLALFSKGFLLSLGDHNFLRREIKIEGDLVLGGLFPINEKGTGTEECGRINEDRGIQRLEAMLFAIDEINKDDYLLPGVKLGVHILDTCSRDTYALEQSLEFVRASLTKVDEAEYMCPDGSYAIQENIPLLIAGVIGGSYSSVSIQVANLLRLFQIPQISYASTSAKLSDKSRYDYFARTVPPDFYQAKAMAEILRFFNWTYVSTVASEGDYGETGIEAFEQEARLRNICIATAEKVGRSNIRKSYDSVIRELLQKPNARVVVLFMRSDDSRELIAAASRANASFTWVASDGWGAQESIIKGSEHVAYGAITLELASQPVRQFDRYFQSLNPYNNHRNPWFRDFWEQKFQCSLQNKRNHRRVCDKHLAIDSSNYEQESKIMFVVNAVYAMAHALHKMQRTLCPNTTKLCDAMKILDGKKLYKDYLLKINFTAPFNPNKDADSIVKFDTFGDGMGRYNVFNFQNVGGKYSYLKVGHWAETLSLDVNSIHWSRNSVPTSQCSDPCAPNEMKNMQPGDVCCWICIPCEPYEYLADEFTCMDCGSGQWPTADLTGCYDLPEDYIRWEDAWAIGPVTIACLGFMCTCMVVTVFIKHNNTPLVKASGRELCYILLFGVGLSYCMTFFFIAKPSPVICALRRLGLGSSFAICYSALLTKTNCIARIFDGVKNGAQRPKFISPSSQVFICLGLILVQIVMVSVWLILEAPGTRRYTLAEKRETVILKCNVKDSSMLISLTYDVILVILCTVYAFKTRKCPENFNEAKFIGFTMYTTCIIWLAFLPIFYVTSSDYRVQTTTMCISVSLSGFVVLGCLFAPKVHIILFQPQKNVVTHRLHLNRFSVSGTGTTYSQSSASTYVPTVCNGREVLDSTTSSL
# Test Details: In vitro antagonist activity at recombinant human Metabotropic glutamate receptor 3 expressed in RGT cells.
Measure: IC50

Given the entry N[C@]1(C(=O)O)C[C@H](C(=O)O)N(Cc2ccc(-c3ccccc3)cc2)C1 , report its measured IC50.
> 300 µM

Ok, now N[C@]1(C(=O)O)C[C@H](C(=O)O)N(Cc2ccc(Cl)cc2)C1
> 300 µM

Ok, now N[C@]1(C(=O)O)C[C@H](C(=O)O)N(Cc2c(Cl)cccc2Cl)C1
40.3 µM

Continuing:
Given the entry N[C@]1(C(=O)O)C[C@H](C(=O)O)N(Cc2ccc3ccccc3c2)C1 , report its measured IC50.
> 300 µM
